Listed molecules paired with reported pIC50
Test system: Plasmodium falciparum
Assay: Hit confirmation in dose-response curve in NF54 nanoGlo assay, at 72h
Type: functional, organism-based, Erythrocyte
Set-up: timepoint 72 hour
Settings: Plasmodium falciparum, NF54, Erythrocyte, 72 h
pIC50: −log10 of the molar value.
Quantity: pIC50

INSERT INTO measurements (molecule, qualifier_symbol, quantitative_result) VALUES
  ('O=C(Nc1cccnc1)c1ccc(-c2ccc(Cl)c(Cl)c2)o1', '=', 5.65),
  ('O=C(Nc1onc2c1CCC2)c1ccc2ccccc2c1', '=', 5.55),
  ('C[C@H]1CCC[C@@H](NCCc2ccccc2)CCC/C=C/c2cc(O)cc(O)c2C(=O)O1', '=', 6.12),
  ('CC1(C)C(NCC(O)COc2ccc(F)c(F)c2)[C@@H]2CCC[C@@H]21 (stereo partly specified)', '=', 5.75),
  ('CCOc1ccc(Nc2c3ccccc3nc3ccccc23)cc1', '=', 5.81),
  ('COc1ccc(CNCCC2C(C)CN(C)C(C)C2Cc2ccccc2)cc1 (stereo unspecified)', '=', 5.78),
  ('O=C(c1ccc2c(c1)OCO2)N1CCn2c1nc1ccccc12', '=', 5.80),
  ('CCN1CCN(C2CCN(c3ncc(F)c(OC)n3)CC2)CC1', '=', 5.59),
  ('COc1ccc2nc(O)c(C(=O)Nc3ccc4c(c3F)CCNC4)cc2c1', '=', 6.11),
  ('Clc1cccc(CNCCCNc2ccncc2)c1Cl', '=', 5.70),
  ('COc1cccc2c(=O)c3c([nH]c12)CCN(CC(=O)NCc1ccccc1Cl)C3', '=', 5.01),
  ('Cc1cccc(-c2nc(C[N+]3(Cc4nc(-c5cccc(C)c5)oc4C)CCCC3)c(C)o2)c1', '=', 5.55),
  ('N#Cc1cc(S(=O)(=O)NCCN(C2CC2)S(=O)(=O)c2ccc(Cl)c(C#N)c2)ccc1Cl', '=', 5.69),
  ('Cc1ccc2nc(-c3cc4ccccc4o3)cn2c1', '=', 5.69),
  ('COc1cc(CNCCCN2CCOCC2)ccc1OCc1ccc(Cl)cc1', '=', 5.54),
  ('O=C(Nc1cccc(Cl)c1)Nc1cccc(-c2cnc3n2CCC3)c1', '=', 5.62),
  ('COc1cccc(N2C(=O)C[C@]3(CC3(c3ccccc3)c3ccccc3)C2=O)c1', '=', 5.39),
  ('CN(Cc1ccsc1)C(=O)c1cc2ccccc2[nH]1', '<', 5.00),
  ('CCc1ccc(C2=C[C@@H](c3cccc(OC)c3)n3ncc(C(=O)Nc4ccc(C)cc4)c3N2)cc1', '=', 5.58),
  ('COc1cc2ncc3c(-c4ccc(C)c(C)c4)n[nH]c3c2cc1OC', '=', 5.37),
  ('CN1CCC(NCC[C@@H](Cc2ccccc2Cl)c2ccc(Cl)cc2)CC1', '=', 5.82),
  ('COCCCn1c(NS(=O)(=O)c2ccccc2)c(S(=O)(=O)c2ccc(C)cc2)c2nc3ccccc3nc21', '=', 5.33),
  ('O=C(Nc1cc(-c2onc3c2CCCC3)cc(C(F)(F)F)c1)c1cncc(Br)c1', '=', 5.92),
  ('CC[n+]1c(/C=C/N(C)c2ccccc2)oc2ccc(-c3ccccc3)cc21', '=', 6.25),
  ('Cc1nc(N)nc(C)c1C(=O)Nc1ccc(Nc2ncccn2)cc1', '=', 5.83),
  ('c1ccc(CC2=NCCc3ccccc32)cc1', '=', 5.89),
  ('CC(C)c1nc(C(=O)Nc2[nH]c(=O)ncc2F)cs1', '=', 8.71),
  ('C=C1C(C)C2C(Cc3c[nH]c4ccccc34)NC(=O)C23C(=O)CC(O)C(O)CC(C)C/C=C/C3C1O (stereo unspecified)', '=', 5.74),
  ('O=C(Cc1ccc(N(Cc2cccc(F)c2)C(=O)c2cccc(F)c2)cc1)NCCN1CCCCC1', '=', 5.49),
  ('C=Cn1cc[n+](CC(=O)c2ccc(-c3ccccc3)cc2)c1', '=', 5.51),
  ('CNCCc1c(-c2ccccc2)[nH]n(-c2ccccc2)c1=O', '=', 5.77);

* * *

# key: entry, value: IC50
Test system: Plasmodium falciparum
Test: Hit confirmation in dose-response curve in NF54 nanoGlo assay, at 72h
Type: functional, organism-based, Erythrocyte
Design: timepoint 72 hour
Details: Plasmodium falciparum, NF54, Erythrocyte, 72 h
Quantity: IC50 (µM)

INSERT INTO results (molecule, quantitative_result) VALUES
  ('O=C(c1cscn1)N1CC[C@H](Oc2cccc(Cl)c2)C1', 3.98),
  ('CCn1ncc(CN2CC[C@@H]3C(=O)NCCCCCCN(Cc4ccncc4)[C@@H]3C2)c1C', 3.72),
  ('Cc1cc(NC(=O)c2ccccn2)n(-c2nc3ccccc3o2)n1', 0.457),
  ('C[C@@H](CN)N(C)c1ccnc2cc(Br)cnc12', 0.513),
  ('CN1CCCN(c2ccc(NC(=O)c3nn(-c4ccccc4)c(=O)c4ccccc34)cc2F)CC1', 1.38);

* * *

Tested on: Plasmodium falciparum
Test: Re-testing in dose-response curve in 3D7 pLDH assay, at 72h
Format: functional, organism-based
Set-up: timepoint 72 hour
Conditions: 3D7, Erythrocyte
Parameter IC50: see the listing below.
Quantity: IC50 (nM)

INSERT INTO measurements (molecule, quantity, unit_label, qualifier_symbol, quantitative_result) VALUES
  ('COc1ccc(F)cc1S(=O)(=O)N1CCc2noc(N)c2C1', 'IC50', 'nM', '>', 25000),
  ('Nc1ncc(C(=O)N2CCC3(CCCCCC3)C2)s1', 'IC50', 'nM', '=', 575),
  ('CN1CC[C@]2(CCN(c3ccnc4ccsc34)C2)C1', 'IC50', 'nM', '=', 461),
  ('Oc1ccccc1-c1cnc(C(F)(F)F)s1', 'IC50', 'nM', '=', 5000),
  ('Cc1cnccc1NCCNC1CCN(c2ccc3c(c2)CCC3)CC1', 'IC50', 'nM', '=', 321),
  ('COc1ccc(-c2cc(C(=O)N[C@H]3CCN(c4ccc(=O)[nH]n4)C3)c(C)n2C)cc1', 'IC50', 'nM', '=', 289),
  ('Cc1cnccc1NCCNCc1cccc(O)c1Cl', 'IC50', 'nM', '=', 943),
  ('N#Cc1cc(S(=O)(=O)NCCN(C2CC2)S(=O)(=O)c2ccc(Cl)c(C#N)c2)ccc1Cl', 'IC50', 'nM', '=', 1100),
  ('Cc1ccc2c(c1)CCCN2C(=O)CN1CC=C(c2cnn(C)c2)CC1', 'IC50', 'nM', '=', 777),
  ('CCN1CCN(c2cccc(NC(=O)c3cc(F)cc4c(=O)c5cc(F)ccc5[nH]c34)c2)CC1', 'IC50', 'nM', '=', 609);

* * *

Test system: Plasmodium falciparum
Test: Hit confirmation in dose-response curve in NF54 pLDH assay, at 72h
Type: functional, organism-based
Set-up: timepoint 72 hour
Conditions: NF54, Erythrocyte
Catalogue of IC50 readings, one per entry.
Quantity: IC50 (µM)

INSERT INTO measurements (compound, system, qualifier_symbol, quantitative_result) VALUES
  ('COc1c(C)cc(C(=O)[C@H]2CCCN(c3cc(N)ncn3)C2)cc1C', 'Plasmodium falciparum', '>', 10),
  ('O=C(c1cccc(C(=O)N2CCN(C(c3ccccc3)c3ccccc3)CC2)c1)N1CCN(C(c2ccccc2)c2ccccc2)CC1', 'Plasmodium falciparum', '>', 10),
  ('CC(C)N1C(=O)NC(=O)C2(Cc3ccccc3N3CCN(Cc4ccccc4)CC32)C1=O (stereo unspecified)', 'Plasmodium falciparum', '>', 10),
  ('COc1ccc(-c2c(-c3cccc(OC)c3)[nH]c3c2c(=O)[nH]c(=O)n3C)cc1', 'Plasmodium falciparum', '>', 10),
  ('Cc1ccc(S(=O)(=O)Nc2c(S(=O)(=O)c3ccc(C)cc3)c3nc4ccccc4nc3n2C[C@H]2CCCO2)cc1', 'Plasmodium falciparum', '>', 10),
  ('Cc1oc2ncn(CCN3CCCC3)c(=O)c2c1C(=O)Nc1ccc(C#N)cc1', 'Plasmodium falciparum', '=', 10.7),
  ('NC(=O)c1ccc(C(F)(F)F)n(C[C@H](O)c2cc(Cl)ccc2Cl)c1=O', 'Plasmodium falciparum', '=', 6.17),
  ('COc1ccc(C(=O)Nc2ccc3c(c2)C(=O)Nc2cccnc2O3)cc1OC', 'Plasmodium falciparum', '>', 10),
  ('CC(C)CCn1nnnc1[C@]1(N(C)C)CCCN(C(=O)c2cccn2C)C1', 'Plasmodium falciparum', '>', 10),
  ('CN(C)CCN(C)c1ccc(Br)cc1NCc1cncn1C', 'Plasmodium falciparum', '=', 3.47),
  ('Oc1ccccc1-c1cnc(C(F)(F)F)s1', 'Plasmodium falciparum', '=', 1.05),
  ('c1cc(N2CC[C@@]3(CCCNC3)C2)c2sccc2n1', 'Plasmodium falciparum', '=', 0.389),
  ('O=C(Nc1onc2c1CCC2)c1ccc2ccccc2c1', 'Plasmodium falciparum', '=', 4.79),
  ('COc1ccc(-c2c(C)nn3c(N4CCC(C(=O)NC5CC5)CC4)cc(C)nc23)cc1OC', 'Plasmodium falciparum', '>', 10),
  ('Cc1ccnc(Nc2ccc(N3CCNCC3)nn2)c1', 'Plasmodium falciparum', '=', 1.29),
  ('COc1ccc(-c2nn3c(N4CCN(CC=Cc5ccccc5)CC4)cc(C)nc3c2C)cc1OC', 'Plasmodium falciparum', '=', 7.76);
